System: Plasmopara viticola (the causal agent of grape downy mildew)
Assay: Test A: grape downy mildew, grape seedlings inoculated then sprayed with test suspension, visual disease rating
Type: in vivo
Conditions: test suspension 10 ppm, 100 = 100% disease control, 0 = no control relative to controls
As shown below, each of these compounds has a reported Test A rating (disease control) value.
Note: unit % is implicit; provide only the numeric part.

# compound, unit of measurement, recorded result
records = [
    ("O=C(CON=CC(Cl)(Cl)Cl)N1CCC(c2nc(C3=NOC(c4c(F)cccc4F)C3)cs2)CC1 (racemic) [compound 17]", "%", 66),
    ("O=C(CON=CC(F)(F)F)N1CCC(c2nc(C3=NOC4(CCc5ccccc54)C3)cs2)CC1 (stereo not shown) [compound 29]", "%", 100),
    ("CC(C)=NOCC(=O)N1CCC(c2nc(C3=NOC(c4ccccc4C)C3)cs2)CC1 (racemic) [compound 14]", "%", 100),
]

Kindly review the next compound as well.
GET /value?item= CC(C)=NOCC(=O)N1CCC(c2nc(C3=NOC(N4C(=O)c5ccccc5C4=O)C3)cs2)CC1 (stereo not shown) [compound 45] &field=Test A rating (disease control) returns 96
